Organism: Rattus norvegicus
Experiment: DrugMatrix - Regimen: Daily Repeat
Format: toxicity, organism-based, Sprague-Dawley
Set-up: regimen Daily Repeat, gender Male, age 6-8 weeks
Details: in vivo, iv, 0 mg/kg, 120 h, tissue Plasma, dose level Control, time 5 day, vehicle 100 % SALINE
Below: a set of entries, each annotated with reported URIC ACID.
Kindly provide the numeric value in mg/dL only, without the unit symbol.

Below, each entry is followed by its recorded URIC ACID result.
CCC1=C[C@@H]2CN(C1)Cc1c([nH]c3ccccc13)[C@@](C(=O)OC)(c1cc3c(cc1OC)N(C)[C@H]1[C@@](O)(C(=O)OC)[C@H](OC(C)=O)[C@]4(CC)C=CCN5CC[C@]31[C@@H]54)C2 [VINORELBINE] : 2.07
COc1cccc2c1C(=O)c1c(O)c3c(c(O)c1C2=O)C[C@@](O)(C(=O)CO)C[C@@H]3O[C@H]1C[C@H](N)[C@H](O)[C@H](C)O1 [DOXORUBICIN] : 0.68
CCc1c2c(nc3ccc(OC(=O)N4CCC(N5CCCCC5)CC4)cc13)-c1cc3c(c(=O)n1C2)COC(=O)[C@]3(O)CC [IRINOTECAN] : 2.02
CC[C@]1(O)C[C@@H]2CN(CCc3c([nH]c4ccccc34)[C@@](C(=O)OC)(c3cc4c(cc3OC)N(C)[C@H]3[C@@](O)(C(=O)OC)[C@H](OC(C)=O)[C@]5(CC)C=CCN6CC[C@]43[C@@H]65)C2)C1 [VINBLASTINE] : 1.85
COc1cccc2c1C(=O)c1c(O)c3c(c(O)c1C2=O)C[C@@](O)(C(=O)CO)C[C@@H]3O[C@H]1C[C@H](N)[C@@H](O)[C@H](C)O1 [EPIRUBICIN] : 2.02

Continue with the next compound.
Query string: Record request: URIC ACID value, item CC(=O)N[C@@H]1[C@H](Oc2c3cc4cc2Oc2ccc(cc2Cl)[C@@H](O[C@@H]2O[C@@H](CO)[C@@H](O)[C@H](O)[C@@H]2NC(C)=O)[C@@H]2NC(=O)[C@H](NC(=O)[C@@H]4NC(=O)[C@H]4NC(=O)[C@@H](Cc5ccc(c(Cl)c5)O3)NC(=O)[C@H](N)c3ccc(O)c(c3)Oc3cc(O)cc4c3)c3ccc(O)c(c3)-c3c(O[C@H]4O[C@H](CO)[C@@H](O)[C@@H](O)[C@@H]4O)cc(O)cc3[C@@H](C(=O)O)NC2=O)O[C@@H](CO)[C@@H](O)[C@@H]1O
Result string: 1.63

* * *

The entries below come with measured ERYTHROCYTE COUNT values attached.
Organism: Rattus norvegicus
Test: DrugMatrix - Regimen: Daily Repeat
Format: toxicity, organism-based, Sprague-Dawley
Set-up: regimen Daily Repeat, gender Male, age 6-8 weeks
Conditions: in vivo, po, 10 mg/kg, 120 h, tissue Blood, route oral GAVAGE, dose level Low, time 5 day, […]
The answer is to be given in x10E6/uL; state only the numeric part.

Recorded ERYTHROCYTE COUNT, per entry:
CCOC(=O)C1=C(C)NC(C)=C(C(=O)OC)C1c1cccc([N+](=O)[O-])c1 (centres undefined) : 5.06
CC(C)CC(N(C)C)C1(c2ccc(Cl)cc2)CCC1 (centres undefined) : 5.44
COc1ccc2cc([C@H](C)C(=O)O)ccc2c1 : 5.33

Would you kindly look at the next entry?
Query string: Sample COCCOC(=O)C1=C(C)NC(C)=C(C(=O)OC(C)C)C1c1cccc([N+](=O)[O-])c1 (centres undefined) — what was its ERYTHROCYTE COUNT?
Result string: 5.7
